// data source = patent US20160297833A1

# Target: human full-length MKNK1 (Homo sapiens, UniProt Q9BUB5, T385D)
# Construct: GST (N); purchased Carna Biosciences 02-145; host or cells: insect cells (baculovirus expression system)
# Sequence (Q9BUB5 1-424 isoform Q9BUB5-2 T344D): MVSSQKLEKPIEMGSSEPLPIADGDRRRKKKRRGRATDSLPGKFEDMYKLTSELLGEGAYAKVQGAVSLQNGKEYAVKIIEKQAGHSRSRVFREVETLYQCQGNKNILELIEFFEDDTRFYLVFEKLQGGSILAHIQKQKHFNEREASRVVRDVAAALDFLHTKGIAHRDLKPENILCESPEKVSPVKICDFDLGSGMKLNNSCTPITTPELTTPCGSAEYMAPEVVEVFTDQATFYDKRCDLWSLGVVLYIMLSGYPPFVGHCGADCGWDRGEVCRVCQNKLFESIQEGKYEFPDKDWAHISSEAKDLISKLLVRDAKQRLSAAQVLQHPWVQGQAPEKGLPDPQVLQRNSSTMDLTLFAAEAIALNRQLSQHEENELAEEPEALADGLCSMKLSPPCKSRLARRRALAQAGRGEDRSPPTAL
# Test Summary: MKNK1 kinase high ATP assay (TR-FRET)
# Format: biochemical
# Experimental Parameters: Table 1; MKNK1 kinase high ATP assay, 2 mM ATP; read-out: MKNK1 IC50
Measured Parameter: IC50

> print(dat)
                               line.notation  measured.parameter  reported.value
 1  CN(C)C(=O)[C@H]1CCc2c(sc3ncnc(Nc4cc5cn[nH]c5cc4NCCNC(=O)OC(C)(C)C)c23)C1                IC50         48.3 nM
 2  COc1cc2[nH]ncc2cc1Nc1ncnc2sc3c(c12)CC[C@H](C(=O)N1CCCCO1)C3                IC50          0.3 nM
 3  CN(C)CCN(C)c1cc2[nH]ncc2cc1Nc1ncnc2sc3c(c12)CC[C@H](C(=O)N(C)C)C3                IC50         39.6 nM
 4  COc1cc2[nH]ncc2cc1Nc1ncnc2sc3c(c12)CC[C@H](C(=O)N1CCOC[C@H]1C)C3                IC50          0.8 nM
 5  CN1CCN(C(=O)[C@H]2CCc3c(sc4ncnc(Nc5ccc6[nH]ncc6c5)c34)C2)CC1                IC50          5.5 nM
 6  C[C@@H]1CN(C(=O)[C@H]2CCc3c(sc4ncnc(Nc5cc6cn[nH]c6cc5F)c34)C2)C[C@H](C)O1                IC50          3.8 nM
 7  COc1cc2[nH]ncc2cc1Nc1ncnc2sc3c(c12)CC[C@@H](C(=O)N1CCOCC1)C3                IC50          8.7 nM
 8  CSc1cc2[nH]ncc2cc1Nc1ncnc2sc3c(c12)CC[C@H](C(=O)N1C[C@@H](C)O[C@H](C)C1)C3                IC50          0.6 nM
 9  COc1cc2[nH]ncc2cc1Nc1ncnc2sc3c(c12)CC[C@H](C(=O)N1CCOCC1)C3                IC50          0.3 nM
10  CCN(CCO)C(=O)[C@@H]1CCc2c(sc3ncnc(Nc4cc5cn[nH]c5cc4OC)c23)C1                IC50         10.5 nM
11  CSc1cc2[nH]ncc2cc1Nc1ncnc2sc3c(c12)CC[C@H](C(=O)N1CCOC[C@H]1C)C3                IC50          2.2 nM
12  CC(C)Oc1cc2[nH]ncc2cc1Nc1ncnc2sc3c(c12)CC[C@H](C(=O)N(C)CC(C)(C)O)C3                IC50          0.3 nM
13  CCCOc1cc2[nH]ncc2cc1Nc1ncnc2sc3c(c12)CC[C@H](C(=O)N1CC(O)C1)C3                IC50          1.9 nM
14  CN(C)C(=O)[C@H]1CCc2c(sc3ncnc(Nc4cc5cn[nH]c5cc4OCCNC(=O)CC4CCCC4)c23)C1                IC50          0.4 nM
15  CC(C)Oc1cc2[nH]ncc2cc1Nc1ncnc2sc3c(c12)CC[C@H](C(=O)N(CCO)CCO)C3                IC50          0.1 nM
16  C[C@@H]1CN(C(=O)[C@H]2CCc3c(sc4ncnc(Nc5ccc6[nH]ncc6c5)c34)C2)C[C@H](C)O1                IC50         11.6 nM
17  CC(C)N(C)c1cc2[nH]ncc2cc1Nc1ncnc2sc3c(c12)CC[C@H](C(=O)N(C)C)C3                IC50          0.3 nM
18  COc1cc2[nH]ncc2cc1Nc1ncnc2sc3c(c12)CC[C@H](C(=O)N(C)CCC(F)(F)F)C3                IC50          0.4 nM
19  CN(C)C(=O)[C@H]1CCc2c(sc3ncnc(Nc4cc5cn[nH]c5cc4N(C)CC(C)(C)O)c23)C1                IC50          9.1 nM
20  CCOc1cc2[nH]ncc2cc1Nc1ncnc2sc3c(c12)CC[C@H](C(=O)N1C[C@@H]2C[C@H]1CO2)C3                IC50          0.4 nM
21  CC(C)Oc1cc2[nH]ncc2cc1Nc1ncnc2sc3c(c12)CC[C@H](C(=O)N1CCOC[C@H]1C)C3                IC50          0.6 nM
22  O=C([C@H]1CCc2c(sc3ncnc(Nc4ccc5[nH]ncc5c4)c23)C1)N1C[C@H]2C[C@@H]1CO2                IC50            4 nM
23  COc1cc2[nH]ncc2cc1Nc1ncnc2sc3c(c12)CC[C@H](C(=O)N1C[C@@H]2C[C@H]1CN2C)C3                IC50          0.2 nM
24  CC(C)Oc1cc2[nH]ncc2cc1Nc1ncnc2sc3c(c12)CC[C@H](C(=O)N1CC(N(C)C)C1)C3                IC50          0.2 nM
25  COc1cc2[nH]ncc2cc1Nc1ncnc2sc3c(c12)CC[C@H](C(=O)N1CC(N(C)C)C1)C3                IC50          0.2 nM
26  COc1cc2[nH]ncc2cc1Nc1ncnc2sc3c(c12)CC[C@H](C(=O)N(C)CCN(C)CCN(C)C)C3                IC50          0.7 nM
27  C[C@H]1COCCN1C(=O)[C@H]1CCc2c(sc3ncnc(Nc4cc5cn[nH]c5cc4OCCN)c23)C1                IC50          0.4 nM
28  O=C([C@H]1CCc2c(sc3ncnc(Nc4ccc5[nH]ncc5c4)c23)C1)N1CCC1                IC50           11 nM
29  CC(C)Oc1cc2[nH]ncc2c(F)c1Nc1ncnc2sc3c(c12)CC[C@H](C(=O)N(C)C)C3                IC50          8.9 nM
